system.under.test: T1, human Y5 receptor (human, UniProt Q15761 1-445)
T1 construct: also called CG-19; hY5
T1 sequence: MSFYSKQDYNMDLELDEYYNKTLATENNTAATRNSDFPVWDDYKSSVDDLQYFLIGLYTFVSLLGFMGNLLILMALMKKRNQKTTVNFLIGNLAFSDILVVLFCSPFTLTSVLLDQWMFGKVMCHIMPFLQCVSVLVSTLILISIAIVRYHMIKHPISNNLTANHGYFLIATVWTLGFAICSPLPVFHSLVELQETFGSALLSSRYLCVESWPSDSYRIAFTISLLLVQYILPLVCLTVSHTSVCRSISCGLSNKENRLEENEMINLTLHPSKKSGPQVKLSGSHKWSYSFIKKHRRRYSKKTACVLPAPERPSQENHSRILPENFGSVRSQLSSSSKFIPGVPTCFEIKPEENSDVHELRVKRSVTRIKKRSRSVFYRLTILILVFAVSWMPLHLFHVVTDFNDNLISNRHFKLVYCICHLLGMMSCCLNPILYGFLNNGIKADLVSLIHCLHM
assay.protocol: 125I-PYY displacement, COS-7 membranes
pKi: −log10 of the molar value. Ends that are not written are not given here.
metric: pKi

{"columns": ["binder", "pKi"],
 "data": [
  ["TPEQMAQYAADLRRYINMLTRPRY (peptide, UniProt P01298 42-65, looked up, range 13-36; Range counted on the mature peptide) [human PP13-36]", 6.14],
  ["APLEPEYPGDNATPEQMAQYAAELRRYINMLTRPRY (peptide, UniProt P01302 30-65, looked up, mature; also called PP, bovine) [bovine PP]", 8.80],
  ["DLARYYSALRHYINLITRQRY (peptide, UniProt P01304 25-45, looked up, range 16-36; Range counted on the mature peptide) [porcine NPY16-36]", 6.52],
  ["APLEPVYPGDNATPEQMAQYAADLRRYINMITRQRY (peptide, UniProt P01298 30-65, looked up, ends and bridges not checked, mature) [human [Ile^31, Gln^34]PP]", 8.70]
]}

1. PLEPVYPGDNATPEQMAQYAADLRRYINMLTRPRY (peptide, UniProt P01298 31-65, looked up, range 2-36; Range counted on the mature peptide) [human PP2-36]
2. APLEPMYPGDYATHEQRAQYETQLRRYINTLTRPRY (peptide, UniProt P06303 30-65, looked up, mature; also called PP, rat) [rat PP]
Compare pKi: is it lower for 1 or for 2 ? Answer format: the label of the selected item.
2
